Assay: chemical genetic growth profiling, strain panel (AID 1159580);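 note: tested at 20 µM; growth read once vehicle control cultures reached saturation at 30 °C; 1 = growth at the plate median or of vehicle wells; lower values mean less growth of the strain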
Conditions: S. cerevisiae deletion strains, growth OD, locus YML124C, strain tub3, hits give low values
Hit rate of the full screen: of about 5,500 compounds, about 2,000 (36%) were called active. Not shown: some 18% with an inconclusive outcome. This is one part of the list.
Below, each entry is listed with its recorded normalized growth.

[
  {
    "Molecule": "Oc1ccc2c3c1OC1[C@@H](O)CC[C@@]4(O)[C@@H](C2)N(CC2CCC2)CC[C@]314 (some centres not stated)",
    "normalized growth": 1.01
  },
  {
    "Molecule": "C[C@@H]1CC[C@@]23CCC4(C)[C@@](C=CC5[C@@]6(C)CCC(=O)C(C)(C)C6CC[C@]54C)(OC2=O)C3[C@H]1C (some centres not stated)",
    "normalized growth": 1.02
  },
  {
    "Molecule": "CC1(C)C(=O)CC[C@@]2(C)C1C[C@@H](O)[C@@]1(C)C3=CC(=O)O[C@@H](c4ccoc4)[C@]3(C)CCC21 (some centres not stated)",
    "normalized growth": 0.998
  },
  {
    "Molecule": "NC[C@H]1O[C@H](OC2[C@@H](N)C[C@@H](N)[C@H](O[C@H]3O[C@H](CO)[C@@H](O)[C@H](N)[C@H]3O)[C@H]2O)[C@H](O)[C@@H](O)[C@@H]1O (some centres not stated)",
    "normalized growth": 0.984
  },
  {
    "Molecule": "CC(=O)N1CCCC1C(=O)O (configuration not stated)",
    "normalized growth": 1.03
  },
  {
    "Molecule": "C/C=C/CC(C)C(O)C1C(=O)NC(CC)C(=O)N(C)CC(=O)N(C)C(CC(C)C)C(=O)NC(C(C)C)C(=O)N(C)C(CC(C)C)C(=O)NC(C)C(=O)NC(C)C(=O)N(C)C(CC(C)C)C(=O)N(C)C(CC(C)C)C(=O)N(C)C(C(C)C)C(=O)N1C (configuration not stated)",
    "normalized growth": 1.03
  },
  {
    "Molecule": "CC(C)=CC1C(CO)C1(C)C (configuration not stated)",
    "normalized growth": 1.01
  }
]

* * *

Test: chemical genetic growth profiling, strain panel (AID 1159580);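 note: tested at 20 µM; growth read once vehicle control cultures reached saturation at 30 °C; 1 = growth at the plate median or of vehicle wells; lower values mean less growth of the strain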
Details: S. cerevisiae deletion strains, growth OD, locus YOL136C, strain PFK27
The campaign covered roughly 5,500 compounds. About 2,000 (36%) were called active. Not shown: some 18% with an inconclusive outcome. No stated cut-off is given here; in the data, active means normalized growth mostly below about 0.91 (no sharp cut-off); inconclusive means no clear call, values can overlap the other calls; inactive means mostly above about 0.92. This is one part of the list.
Outcome codes: active, inactive

[
  {
    "Molecule": "Cc1ccc(Sc2ncccc2NS(=O)(=O)c2ccc(Cl)cc2)cc1",
    "Assigned label": "inactive"
  },
  {
    "Molecule": "O=S(=O)(Nc1ccccc1Sc1c(Cl)cncc1Cl)c1ccc(Cl)cc1",
    "Assigned label": "inactive"
  },
  {
    "Molecule": "O=C1Nc2ccccc2/C1=C\\c1c[nH]c2ccccc12",
    "Assigned label": "active"
  },
  {
    "Molecule": "O=C1Nc2ccccc2/C1=C\\c1cccc2ccccc12",
    "Assigned label": "inactive"
  },
  {
    "Molecule": "Cc1ccc(OS(=O)(=O)c2c(Cl)sc(Cl)c2Br)c([N+](=O)[O-])n1",
    "Assigned label": "inactive"
  },
  {
    "Molecule": "ONC(=Nc1ccccc1Cl)c1ccccc1Cl",
    "Assigned label": "inactive"
  },
  {
    "Molecule": "OC(COCc1ccccc1)Cn1c2ccccc2c2ccccc21 (centres undefined)",
    "Assigned label": "inactive"
  },
  {
    "Molecule": "N#Cc1nccnc1N1CCN(C(=O)Nc2cc(Cl)cc(Cl)c2)CC1",
    "Assigned label": "inactive"
  },
  {
    "Molecule": "N#Cc1ccc2[nH]cc(CCN(Cc3ccccc3)Cc3ccccc3)c2c1",
    "Assigned label": "inactive"
  }
]

* * *

Test: chemical genetic growth profiling, strain panel (AID 1159580);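 note: tested at 20 µM; growth read once vehicle control cultures reached saturation at 30 °C; 1 = growth at the plate median or of vehicle wells; lower values mean less growth of the strain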
Conditions: S. cerevisiae deletion strains, growth OD, locus YOR144C, strain elg1, hits give low values
Screen size: about 5,500 compounds; about 2,000 (36%) were called active. Not shown: some 18% with an inconclusive outcome. This is one part of the list.
Below, each entry is listed with its recorded normalized growth.
Measurement label: normalized growth

[
  {
    "Molecule": "COc1ccc(-c2cc(=O)c3c(O)cc(O)c(-c4cc(-c5cc(=O)c6c(O)cc(O)cc6o5)ccc4OC)c3o2)cc1",
    "Result": 1.01
  },
  {
    "Molecule": "CC(=O)Oc1ccccc1C(=O)Oc1ccccc1C(=O)O",
    "Result": 0.991
  },
  {
    "Molecule": "COC(=O)NC(=S)Nc1ccccc1NC(=S)NC(=O)OC",
    "Result": 1.01
  },
  {
    "Molecule": "COC(=O)C[C@H]1C(C)(C)[C@@H](O)[C@@H]2CC3=C4CC(O)O[C@@H](c5ccoc5)[C@]4(C)CCC3[C@@]1(C)C2=O (stereo partly drawn)",
    "Result": 0.99
  },
  {
    "Molecule": "NS(=O)(=O)c1cc2c(cc1C(F)(F)F)NC(Cc1ccccc1)NS2(=O)=O (stereo not drawn)",
    "Result": 0.998
  },
  {
    "Molecule": "CC(=O)OC1CC[C@@]2(C)C(CCC3C2CC[C@]2(C)C(C4=CC(=O)OC4)C(OC(C)=O)CC32O)C1 (stereo partly drawn)",
    "Result": 1.02
  },
  {
    "Molecule": "COc1cc(C)c2c(=O)c3c(O)cc(O)cc3oc2c1",
    "Result": 0.954
  },
  {
    "Molecule": "COC1=CC(C)[C@@H]2C[C@H]3OC(=O)C[C@H]4C(C)=C(OC)C(=O)C([C@@]34C)[C@@]2(C)C1=O (stereo partly drawn)",
    "Result": 1.01
  },
  {
    "Molecule": "CCOC(=O)C1=C(O)C(=O)N(Cc2ccccc2)C1",
    "Result": 1
  },
  {
    "Molecule": "NC(=O)c1cc([N+](=O)[O-])cc([N+](=O)[O-])c1",
    "Result": 0.998
  },
  {
    "Molecule": "CC1(C)C(O)CC(=O)C2(C)C1CC(O)C1(C)C2CCC2(C)C(c3ccoc3)OC(=O)C3OC321 (stereo not drawn)",
    "Result": 1.01
  },
  {
    "Molecule": "CC(=O)N1CCCC1C(=O)O (stereo not drawn)",
    "Result": 1.02
  },
  {
    "Molecule": "COc1ccc(-c2cc(=O)c3c(O)cc(O)cc3o2)cc1",
    "Result": 1
  },
  {
    "Molecule": "CC[C@@]1(O)C(=O)OCc2c1cc1n(c2=O)Cc2cc3ccccc3nc2-1",
    "Result": 0.542
  },
  {
    "Molecule": "COc1c(O)cc2c(c1O)[C@H]1O[C@H](CO)[C@@H](O)[C@H](O)[C@@H]1OC2=O",
    "Result": 1.01
  },
  {
    "Molecule": "NC[C@@H]1O[C@H](O[C@@H]2[C@@H](CO)OC(O[C@@H]3[C@@H](O)[C@H](N)C[C@H](N)[C@H]3O[C@H]3O[C@H](CO)[C@@H](O)[C@H](O)[C@H]3N)[C@@H]2O)[C@H](N)[C@@H](O)[C@@H]1O (stereo partly drawn)",
    "Result": 0.999
  },
  {
    "Molecule": "CC1=CC(=O)C2C(C)(C)CCC[C@]2(C)[C@@]1(O)CCc1ccoc1 (stereo partly drawn)",
    "Result": 0.986
  },
  {
    "Molecule": "CC[C@H]1CN2CCC1C[C@@H]2[C@@H](O)c1ccnc2ccc(OC)cc12 (stereo partly drawn)",
    "Result": 1.01
  },
  {
    "Molecule": "C[C@H]1[C@H](C)CC[C@]2(C(=O)O)CC[C@]3(C)C(=CCC4[C@@]5(C)C[C@@H](O)[C@H](O)[C@@](C)(CO)C5[C@H](O)C[C@]43C)[C@H]12 (stereo partly drawn)",
    "Result": 0.958
  },
  {
    "Molecule": "CC1(C)S[C@@H]2[C@H](NC(=O)[C@@H](N)c3ccc(O)cc3)C(=O)N2[C@H]1C(=O)O",
    "Result": 0.991
  },
  {
    "Molecule": "CC[C@@]1(O)C(=O)OCc2c1cc1n(c2=O)Cc2cc3cc(O)ccc3nc2-1",
    "Result": 0.988
  },
  {
    "Molecule": "C[C@@H]1CC[C@@]23CCC4(C)[C@@](C=CC5[C@@]6(C)CCC(=O)C(C)(C)C6CC[C@]54C)(OC2=O)C3[C@H]1C (stereo partly drawn)",
    "Result": 1.02
  },
  {
    "Molecule": "NC(=O)c1ccc([N+](=O)[O-])cc1Cl",
    "Result": 0.991
  },
  {
    "Molecule": "NC(=O)c1ccccc1O",
    "Result": 1
  },
  {
    "Molecule": "C/C=C(\\C)C(=O)O[C@@H]1c2c(ccc3ccc(=O)oc23)OC(C)(C)[C@@H]1OC(C)=O",
    "Result": 1.01
  },
  {
    "Molecule": "CO[C@H]1[C@H](O)[C@@H](O[C@H]2CC[C@]3(C=O)C4CC[C@]5(C)[C@@H](C6=CC(=O)OC6)CC[C@]5(O)C4CC[C@@H]3C2)O[C@@H](C)[C@@H]1O (stereo partly drawn)",
    "Result": 0.998
  },
  {
    "Molecule": "COC(=O)CC1C(C)(C)C(OC(C)=O)[C@@H]2[C@@H](OC(C)=O)[C@]34O[C@@]2(O)[C@]1(C)C3CC[C@]1(C)C4=CC(=O)O[C@H]1c1ccoc1 (stereo partly drawn)",
    "Result": 1
  },
  {
    "Molecule": "O=C(O)c1cc(O)ccc1O",
    "Result": 0.989
  },
  {
    "Molecule": "CC1CCCC(C)N1NC(=O)c1ccc(Cl)c(S(N)(=O)=O)c1 (stereo not drawn)",
    "Result": 0.994
  },
  {
    "Molecule": "COc1ccc(-c2cc(=O)c3c(O)c(OC)c(OC)cc3o2)cc1O",
    "Result": 0.991
  },
  {
    "Molecule": "NCCCN",
    "Result": 0.993
  },
  {
    "Molecule": "COc1ccc(-c2cc(=O)c3c(O)cc(O)cc3o2)cc1O",
    "Result": 0.997
  },
  {
    "Molecule": "Cc1c(OCC(F)(F)F)ccnc1CS(=O)c1nc2ccccc2[nH]1 (stereo not drawn)",
    "Result": 0.977
  },
  {
    "Molecule": "Cc1cc(N)c2ccccc2[n+]1CCCCCCCCCC[n+]1c(C)cc(N)c2ccccc21",
    "Result": 0.0641
  },
  {
    "Molecule": "NCCCCN",
    "Result": 1
  },
  {
    "Molecule": "COC1C(O)C(O[C@H]2CC[C@]3(C=O)C4C(CC[C@]3(O)C2)[C@@]2(O)CC[C@H](C3=CC(=O)OC3)[C@@]2(C)C[C@H]4OC(C)=O)OC(C)C1OC(C)=O (stereo partly drawn)",
    "Result": 1.03
  },
  {
    "Molecule": "CC1(C)Oc2ccc3ccc(=O)oc3c2CC1O (stereo not drawn)",
    "Result": 1
  },
  {
    "Molecule": "COC1CC(O[C@H]2CC[C@]3(C=O)C4CC[C@]5(C)C(C6=CC(=O)OC6)CC[C@]5(O)C4CC[C@]3(O)C2)OC(C)C1O (stereo partly drawn)",
    "Result": 0.989
  }
]
